molecular target: N-type calcium channel subunits (α1B, α2δ, and β3a) (Homo sapiens); experiment: Block of Cav2.2 channel, whole cell voltage clamp, manual and PatchXpress; format: cell-based; details: Table 5; table follows Assay Example 3 (whole cell voltage clamp / PatchXpress); assay not given
Sequence (Q00975 whole entry): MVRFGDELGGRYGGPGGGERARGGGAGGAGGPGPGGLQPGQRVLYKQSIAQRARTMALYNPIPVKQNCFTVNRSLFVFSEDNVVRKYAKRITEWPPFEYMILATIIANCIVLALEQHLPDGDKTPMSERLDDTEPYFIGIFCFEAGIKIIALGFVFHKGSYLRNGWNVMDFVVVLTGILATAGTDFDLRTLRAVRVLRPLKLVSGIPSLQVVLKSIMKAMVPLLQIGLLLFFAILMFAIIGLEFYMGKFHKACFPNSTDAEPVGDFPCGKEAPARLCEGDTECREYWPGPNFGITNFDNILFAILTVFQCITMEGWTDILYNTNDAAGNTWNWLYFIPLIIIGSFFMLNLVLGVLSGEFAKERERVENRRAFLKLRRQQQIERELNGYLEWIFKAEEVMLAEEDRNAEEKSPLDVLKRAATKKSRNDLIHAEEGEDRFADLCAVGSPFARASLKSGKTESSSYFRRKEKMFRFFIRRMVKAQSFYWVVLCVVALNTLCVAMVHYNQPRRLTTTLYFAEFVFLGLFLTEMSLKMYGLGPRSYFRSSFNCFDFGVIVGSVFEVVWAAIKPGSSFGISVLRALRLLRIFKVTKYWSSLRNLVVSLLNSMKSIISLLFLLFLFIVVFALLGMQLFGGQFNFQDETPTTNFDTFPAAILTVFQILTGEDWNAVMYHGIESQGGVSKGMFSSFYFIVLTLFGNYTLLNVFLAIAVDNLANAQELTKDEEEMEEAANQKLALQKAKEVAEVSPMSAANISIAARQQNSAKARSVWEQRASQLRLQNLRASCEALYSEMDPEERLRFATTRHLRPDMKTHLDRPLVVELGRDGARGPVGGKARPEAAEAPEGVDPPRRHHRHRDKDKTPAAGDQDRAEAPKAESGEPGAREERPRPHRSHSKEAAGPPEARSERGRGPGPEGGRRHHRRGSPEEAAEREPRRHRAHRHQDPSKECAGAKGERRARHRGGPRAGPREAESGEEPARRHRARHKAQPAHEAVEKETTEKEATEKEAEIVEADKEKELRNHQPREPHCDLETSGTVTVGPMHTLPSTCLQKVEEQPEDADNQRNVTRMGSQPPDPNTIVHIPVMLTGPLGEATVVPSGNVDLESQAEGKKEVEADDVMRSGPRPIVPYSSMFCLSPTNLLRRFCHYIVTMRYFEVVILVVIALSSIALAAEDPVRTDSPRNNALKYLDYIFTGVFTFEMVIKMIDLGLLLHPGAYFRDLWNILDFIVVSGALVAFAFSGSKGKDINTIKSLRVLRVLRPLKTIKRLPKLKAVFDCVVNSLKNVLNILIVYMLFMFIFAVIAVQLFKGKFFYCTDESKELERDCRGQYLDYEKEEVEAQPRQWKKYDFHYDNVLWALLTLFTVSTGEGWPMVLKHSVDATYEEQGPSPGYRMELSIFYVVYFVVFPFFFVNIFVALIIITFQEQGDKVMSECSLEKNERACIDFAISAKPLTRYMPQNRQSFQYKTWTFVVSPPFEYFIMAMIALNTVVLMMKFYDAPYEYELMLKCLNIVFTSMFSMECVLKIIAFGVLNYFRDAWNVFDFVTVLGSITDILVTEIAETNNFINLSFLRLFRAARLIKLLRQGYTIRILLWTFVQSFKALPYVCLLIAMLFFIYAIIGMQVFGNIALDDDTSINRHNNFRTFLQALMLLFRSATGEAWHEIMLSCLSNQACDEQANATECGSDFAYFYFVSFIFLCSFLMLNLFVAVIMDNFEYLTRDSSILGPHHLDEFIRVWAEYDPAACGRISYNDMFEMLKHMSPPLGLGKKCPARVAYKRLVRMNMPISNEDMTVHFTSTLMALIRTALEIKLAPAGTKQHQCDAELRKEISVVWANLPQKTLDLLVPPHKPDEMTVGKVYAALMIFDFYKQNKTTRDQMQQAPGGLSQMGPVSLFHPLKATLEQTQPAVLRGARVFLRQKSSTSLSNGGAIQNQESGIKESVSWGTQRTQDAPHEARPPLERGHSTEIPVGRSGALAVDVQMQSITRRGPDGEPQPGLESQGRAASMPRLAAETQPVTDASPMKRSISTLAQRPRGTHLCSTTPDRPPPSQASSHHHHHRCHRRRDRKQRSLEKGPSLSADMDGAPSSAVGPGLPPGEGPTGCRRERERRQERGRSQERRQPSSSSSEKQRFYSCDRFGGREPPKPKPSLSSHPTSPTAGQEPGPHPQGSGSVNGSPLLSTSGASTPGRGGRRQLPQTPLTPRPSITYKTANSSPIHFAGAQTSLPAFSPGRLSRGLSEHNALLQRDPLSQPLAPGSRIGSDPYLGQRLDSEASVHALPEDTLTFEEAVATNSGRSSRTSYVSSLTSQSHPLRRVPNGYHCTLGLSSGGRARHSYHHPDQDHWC
Sequence (P54289 25-1103 partner): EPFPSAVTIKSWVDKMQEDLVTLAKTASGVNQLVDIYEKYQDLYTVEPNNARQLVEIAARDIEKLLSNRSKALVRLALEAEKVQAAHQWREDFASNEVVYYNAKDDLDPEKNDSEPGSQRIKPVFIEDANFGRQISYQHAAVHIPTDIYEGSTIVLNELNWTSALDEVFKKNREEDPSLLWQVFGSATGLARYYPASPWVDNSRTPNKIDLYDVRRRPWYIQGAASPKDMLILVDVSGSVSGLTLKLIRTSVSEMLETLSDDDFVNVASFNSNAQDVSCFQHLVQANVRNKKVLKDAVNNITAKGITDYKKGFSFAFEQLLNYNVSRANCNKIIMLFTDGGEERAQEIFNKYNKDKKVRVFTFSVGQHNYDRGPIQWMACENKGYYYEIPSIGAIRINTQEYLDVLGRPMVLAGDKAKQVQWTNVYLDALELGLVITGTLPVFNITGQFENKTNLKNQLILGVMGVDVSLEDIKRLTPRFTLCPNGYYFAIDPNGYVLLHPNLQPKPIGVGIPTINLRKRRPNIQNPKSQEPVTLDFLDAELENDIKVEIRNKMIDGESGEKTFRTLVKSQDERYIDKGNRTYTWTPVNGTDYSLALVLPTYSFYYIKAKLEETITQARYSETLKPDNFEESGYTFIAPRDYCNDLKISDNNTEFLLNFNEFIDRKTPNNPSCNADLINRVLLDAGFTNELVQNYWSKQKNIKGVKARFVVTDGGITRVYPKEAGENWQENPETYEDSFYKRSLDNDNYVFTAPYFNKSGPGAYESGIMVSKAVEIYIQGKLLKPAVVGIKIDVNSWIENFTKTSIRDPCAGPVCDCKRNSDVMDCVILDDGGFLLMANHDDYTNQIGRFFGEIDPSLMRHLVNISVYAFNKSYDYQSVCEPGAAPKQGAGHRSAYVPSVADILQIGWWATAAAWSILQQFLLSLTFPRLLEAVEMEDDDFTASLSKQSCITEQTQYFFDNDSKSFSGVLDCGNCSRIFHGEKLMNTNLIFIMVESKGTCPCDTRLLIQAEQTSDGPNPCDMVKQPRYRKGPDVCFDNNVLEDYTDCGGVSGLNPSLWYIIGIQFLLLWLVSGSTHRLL
Sequence (P54284 whole entry partner): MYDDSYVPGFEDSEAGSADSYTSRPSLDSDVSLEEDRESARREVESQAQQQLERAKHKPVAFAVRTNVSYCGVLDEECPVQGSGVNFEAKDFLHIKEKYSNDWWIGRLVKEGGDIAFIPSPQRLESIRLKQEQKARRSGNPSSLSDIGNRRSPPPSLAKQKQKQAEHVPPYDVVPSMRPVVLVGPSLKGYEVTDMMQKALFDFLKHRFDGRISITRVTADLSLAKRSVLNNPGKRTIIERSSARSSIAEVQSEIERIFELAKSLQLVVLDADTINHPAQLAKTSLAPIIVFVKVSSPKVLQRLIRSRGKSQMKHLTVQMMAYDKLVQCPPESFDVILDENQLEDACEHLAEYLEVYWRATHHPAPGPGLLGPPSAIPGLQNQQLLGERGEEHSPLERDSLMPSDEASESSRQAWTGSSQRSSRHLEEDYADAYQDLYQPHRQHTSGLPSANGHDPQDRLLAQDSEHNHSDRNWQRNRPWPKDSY
OBSERVED_PROPERTY: IC50 (nM)
Give bare numbers, in nM.

1) O=C(N[C@H]1C[C@H](S(=O)(=O)c2cccc(C(F)(F)F)c2)C1)c1cc(F)cc(Cl)c1 = 3350
2) Cc1cc(NC(=O)CN[C@H]2CC[C@H](S(=O)(=O)c3cccc(C(F)(F)F)c3)CC2)on1 = 4950
3) CC1(NC(=O)c2ccc(C(F)(F)F)nc2S(C)(=O)=O)CCC(S(=O)(=O)c2cccc(C(F)(F)F)c2)CC1 (stereo not drawn) = 3120
4) O=C(CN[C@H]1CC[C@@H](S(=O)(=O)c2cccc(C(F)(F)F)c2)CC1)NCC(F)(F)F = 1650
5) O=C(N[C@H]1CC[C@@H](S(=O)(=O)c2cc(F)cc(C(F)(F)F)c2)CC1)c1ccc(Cl)c(OC(F)(F)F)c1 = 500

Dear colleague, could you please provide IC50 for the molecules listed below?
1. CC(C)NC(=O)CN[C@H]1CC[C@H](S(=O)(=O)c2cccc(C(F)(F)F)c2)CC1
2. O=C(N[C@H]1CC[C@@H](S(=O)(=O)c2cccc(C(F)(F)F)c2)CC1)C1CCOCC1

Out:
8580
5930

Dear colleague, could you please provide IC50 for the molecules listed below?
1. CC(C)(C)NC(=O)CN[C@H]1CC[C@H](S(=O)(=O)c2cccc(C(F)(F)F)c2)CC1
2. Cc1nc(S(=O)(=O)N[C@H]2CC[C@@](F)(S(=O)(=O)c3cccc(C(F)(F)F)c3)CC2)cn1C
3. O=S(=O)(c1cccc(C(F)(F)F)c1)[C@H]1C[C@H](c2c[nH]c(-c3ccc(OC(F)(F)F)cc3)n2)C1
4. CC(C)(C)NC(=O)CNC1CCC(S(=O)(=O)c2cccc(C(F)(F)F)c2)CC1 (stereo not drawn)

Out:
1650
3760
290
140
